Biological target: Cytochrome P450 2C19 (Homo sapiens)
Sequence (P33261 whole entry): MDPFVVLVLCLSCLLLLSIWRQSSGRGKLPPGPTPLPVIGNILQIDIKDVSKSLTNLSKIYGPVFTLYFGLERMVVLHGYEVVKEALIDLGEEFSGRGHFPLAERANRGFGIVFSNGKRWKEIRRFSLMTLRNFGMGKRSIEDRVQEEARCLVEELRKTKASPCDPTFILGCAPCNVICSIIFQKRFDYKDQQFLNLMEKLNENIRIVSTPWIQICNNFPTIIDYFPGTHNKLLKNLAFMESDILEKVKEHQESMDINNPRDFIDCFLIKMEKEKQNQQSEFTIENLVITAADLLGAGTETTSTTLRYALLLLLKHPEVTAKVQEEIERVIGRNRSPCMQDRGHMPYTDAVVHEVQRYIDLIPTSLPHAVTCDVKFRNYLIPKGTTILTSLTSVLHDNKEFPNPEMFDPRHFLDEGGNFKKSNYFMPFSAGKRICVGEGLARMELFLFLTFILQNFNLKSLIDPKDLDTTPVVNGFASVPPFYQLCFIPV
Experiment: Cytochrome panel assay with activity outcomes. Panel member name: p450-cyp2c19 Compounds with AC50 equal or less than 10 uM are considered active
Assay type: functional
Listing of entries alongside the reported AC50.

- CCNc1ncc2nc(-c3cccs3)c(=O)n(Cc3ccc(F)cc3)c2n1: 20 µM (inconclusive)

Which AC50 value belongs to COc1ccc(NC(=O)N2CCCC2C(=O)Nc2ccccc2)cc1 (stereo not given) ?
20 µM (inconclusive)

Which AC50 value belongs to "C[C@H]1C[C@@H]2[C@H]3CCC4=CC(=O)C=C[C@@]4(C)[C@@]3(Cl)[C@@H](O)C[C@]2(C)[C@]1(OC(=O)c1ccco1)C(=O)CCl" ?
7.94 µM (inconclusive)

Which AC50 value belongs to "Cc1cc(C(=O)C(=O)NC(C)C)c(C)n1-c1ccc([N+](=O)[O-])cc1" ?
0.0708 µM (inconclusive)

Which AC50 value belongs to "COc1ccc(CN2CCN(C(=O)CC(C)C)CC2)c(OC)c1OC" ?
25.1 µM (inconclusive)

Which AC50 value belongs to "COc1ccc(-n2c(SC)nc(O)c(Cc3ccccc3)c2=O)cc1" ?
7.94 µM (inconclusive)

Which AC50 value belongs to "COc1ccc(NC(=O)N2CC[C@@]3(CCCN(C(=O)Oc4ccccc4)C3)C2)cc1" ?
15.8 µM (inconclusive)

* * *

Target: Rac GTPase-activating protein 1 (Homo sapiens, UniProt Q9H0H5)
Sequence (Q9H0H5 whole entry): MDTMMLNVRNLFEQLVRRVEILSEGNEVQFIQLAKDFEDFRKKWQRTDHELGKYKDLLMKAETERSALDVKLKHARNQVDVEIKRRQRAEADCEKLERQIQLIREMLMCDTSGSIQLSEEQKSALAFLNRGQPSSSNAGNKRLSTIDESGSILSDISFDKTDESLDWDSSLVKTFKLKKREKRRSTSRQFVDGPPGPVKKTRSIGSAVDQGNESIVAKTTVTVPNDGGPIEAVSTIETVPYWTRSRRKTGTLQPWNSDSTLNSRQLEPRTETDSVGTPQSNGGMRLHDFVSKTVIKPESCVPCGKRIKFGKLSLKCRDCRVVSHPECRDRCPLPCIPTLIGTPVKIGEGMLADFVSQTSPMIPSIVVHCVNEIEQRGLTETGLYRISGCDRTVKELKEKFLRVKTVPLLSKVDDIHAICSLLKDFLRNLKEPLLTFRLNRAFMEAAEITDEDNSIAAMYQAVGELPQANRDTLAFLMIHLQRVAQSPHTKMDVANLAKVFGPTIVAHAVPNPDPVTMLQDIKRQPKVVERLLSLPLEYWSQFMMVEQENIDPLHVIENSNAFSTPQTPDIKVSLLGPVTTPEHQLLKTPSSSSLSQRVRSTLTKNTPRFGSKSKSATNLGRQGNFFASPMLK
Assay: blockers of MgcRacGAP-driven Rac1 GTP hydrolysis – biochemical, ADP Hunter fluorescence, primary and confirmatory, confirmation (AID 624330)
Type: functional
The source made the active and inactive calls.
Listing of entries alongside the reported IC50.

For orientation, consider the following solved cases.
- Cc1ccc(S(=O)(=O)N2CCOCC2)cc1NC(=O)CNCc1cccnc1: 108 µM (active)
- COc1ccc(NC2CCCN(C(=O)CCc3cn[nH]c3)C2)cc1 (stereo unspecified): 108 µM (active)
- O=C(CCC1CCCC1)N1CCN(C2CCCC2)CC1: 209 µM (active)
- CC/N=C1\S/C(=C\c2ccc(O)c(OCC)c2)C(=O)N1CC: 37.9 µM (active)
- CN(C)c1ccc(NS(=O)(=O)c2cc(Cl)ccc2Cl)cc1: 57.7 µM (active)

Entry "CN1CCCCC/C1=N\c1ccccc1C#N" , system Rac GTPase-activating protein 1 (Homo sapiens, UniProt Q9H0H5): what IC50 was measured?
113 µM (active)

* * *

Target: Protein skinhead-1 (Caenorhabditis elegans, UniProt P34707)
Sequence (P34707 whole entry): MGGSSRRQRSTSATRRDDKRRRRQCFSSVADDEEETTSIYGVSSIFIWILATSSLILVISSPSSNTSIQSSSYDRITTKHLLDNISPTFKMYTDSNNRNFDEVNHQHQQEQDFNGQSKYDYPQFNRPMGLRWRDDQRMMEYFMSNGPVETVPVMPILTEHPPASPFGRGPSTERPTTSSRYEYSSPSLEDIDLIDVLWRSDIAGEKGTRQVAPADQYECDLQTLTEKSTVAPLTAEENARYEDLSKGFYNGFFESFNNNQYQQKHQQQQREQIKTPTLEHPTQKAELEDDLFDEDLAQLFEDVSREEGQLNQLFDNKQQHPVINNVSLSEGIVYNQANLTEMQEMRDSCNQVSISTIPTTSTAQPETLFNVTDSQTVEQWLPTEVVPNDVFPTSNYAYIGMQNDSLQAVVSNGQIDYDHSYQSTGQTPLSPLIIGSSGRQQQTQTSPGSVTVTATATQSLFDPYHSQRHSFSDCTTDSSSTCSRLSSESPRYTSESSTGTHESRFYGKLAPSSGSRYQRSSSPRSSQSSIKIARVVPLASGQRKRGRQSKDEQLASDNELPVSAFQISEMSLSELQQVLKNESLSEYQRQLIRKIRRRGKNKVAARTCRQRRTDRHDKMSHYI
Assay type: functional
Calls of active or inactive are those of the source.
Choose one outcome from this list and give only that: active, inactive

These recorded examples may help you get a feel for the data.
• CCOc1cc(CNCCSc2nnnn2C)cc(Br)c1OCc1ccccc1F = active
• O=C(CN1CCCC1)Nc1sc2c(c1C(=O)Nc1ccc(Br)cc1)CCC2 = inactive
• CC(=O)Nc1ccc(S(=O)(=O)NCc2ccc3c(c2)cc(C)n3C)cc1 = inactive
• Cc1ccc(C)c(NC(=O)/C(C#N)=C/c2ccc[nH]2)c1 = inactive
• Nc1nnc(SCC(=O)N2CCN(c3cccc(Cl)c3)CC2)n1-c1ccccc1 = inactive

Which outcome did this test record for the molecule O=C(Nc1ccc2c(c1)CN(Cc1ccco1)CC2)C1CCCO1 (stereo not drawn) ?
inactive

Which outcome did this test record for the molecule "COc1ccc(-c2cc(=O)oc3cc(OCC(=O)N(C)C)ccc23)cc1" ?
inactive

Which outcome did this test record for the molecule "CC(=O)N1/C(=C/c2ccc(N(C)C)cc2)C(=O)c2ccccc21" ?
inactive

Which outcome did this test record for the molecule "COC(=O)CSc1nc2cc(C)cc(C)c2cc1C#N" ?
inactive

Which outcome did this test record for the molecule "COc1cccc(-c2noc(-c3ccoc3C)n2)c1" ?
inactive

Which outcome did this test record for the molecule "O=C1/C(=C/c2ccccc2)CCCc2ccccc21" ?
active

Which outcome did this test record for the molecule "CCCn1cnc2cc(NCc3cccc(OC)c3O)ccc21" ?
inactive

Which outcome did this test record for the molecule "CN(CCCN1CCOCC1)C(=O)c1cc(COc2cccc(C(F)(F)F)c2)on1" ?
inactive

* * *

// UniProtKB P10635 AC50 records
Sequence (P10635 whole entry): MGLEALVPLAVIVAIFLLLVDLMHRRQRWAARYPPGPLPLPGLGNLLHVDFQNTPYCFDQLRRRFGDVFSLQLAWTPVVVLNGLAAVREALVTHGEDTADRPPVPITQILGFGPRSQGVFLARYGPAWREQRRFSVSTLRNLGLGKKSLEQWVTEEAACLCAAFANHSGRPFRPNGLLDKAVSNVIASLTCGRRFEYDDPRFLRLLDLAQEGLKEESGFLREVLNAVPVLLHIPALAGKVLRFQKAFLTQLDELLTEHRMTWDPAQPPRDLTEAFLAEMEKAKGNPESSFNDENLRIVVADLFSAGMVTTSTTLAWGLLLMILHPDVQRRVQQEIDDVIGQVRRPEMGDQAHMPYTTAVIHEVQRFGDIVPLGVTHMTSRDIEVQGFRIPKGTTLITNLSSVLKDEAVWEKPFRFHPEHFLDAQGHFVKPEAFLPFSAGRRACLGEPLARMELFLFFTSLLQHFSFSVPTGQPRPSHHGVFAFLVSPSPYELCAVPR

For orientation, consider the following solved cases.
• FC(F)(F)c1cc(CN2CCCC3(CCNCC3)C2)cc(C(F)(F)F)c1 = 12.6 µM (inconclusive)
• CSc1cccc(NC(=O)Cn2cccc2)c1 = 14.1 µM (inconclusive)
• Cc1noc(C)c1-c1nccc(NC2CC2)n1 = 31.6 µM (inconclusive)

Entry "CCNc1ncc2nc(-c3cccs3)c(=O)n(Cc3ccc(F)cc3)c2n1" , system UniProtKB P10635: what AC50 was measured?
31.6 µM (inconclusive)

Entry "CN(C)c1ncc2ncc(=O)n(CCc3ccccc3)c2n1" , system UniProtKB P10635: what AC50 was measured?
39.8 µM (inconclusive)

Entry "CS(=O)(=O)Nc1cccc(-c2cncnc2NCc2ccccc2)c1" , system UniProtKB P10635: what AC50 was measured?
20 µM (inconclusive)

Entry "COc1ccccc1NCc1nnc(SCC(=O)N/N=C/c2ccco2)n1-c1ccc(Cl)cc1Cl" , system UniProtKB P10635: what AC50 was measured?
28.2 µM (inconclusive)

Entry "COc1cccc(Cn2c(=O)c(CCc3ccccc3)nc3cnc(N4CCNCC4)nc32)c1" , system UniProtKB P10635: what AC50 was measured?
31.6 µM (inconclusive)

Entry "CCNc1ncc2ncc(=O)n(CCc3ccccc3)c2n1" , system UniProtKB P10635: what AC50 was measured?
25.1 µM (inconclusive)

* * *

Molecular target: High affinity choline transporter 1 (Homo sapiens, UniProt Q9GZV3)
Sequence (Q9GZV3 whole entry): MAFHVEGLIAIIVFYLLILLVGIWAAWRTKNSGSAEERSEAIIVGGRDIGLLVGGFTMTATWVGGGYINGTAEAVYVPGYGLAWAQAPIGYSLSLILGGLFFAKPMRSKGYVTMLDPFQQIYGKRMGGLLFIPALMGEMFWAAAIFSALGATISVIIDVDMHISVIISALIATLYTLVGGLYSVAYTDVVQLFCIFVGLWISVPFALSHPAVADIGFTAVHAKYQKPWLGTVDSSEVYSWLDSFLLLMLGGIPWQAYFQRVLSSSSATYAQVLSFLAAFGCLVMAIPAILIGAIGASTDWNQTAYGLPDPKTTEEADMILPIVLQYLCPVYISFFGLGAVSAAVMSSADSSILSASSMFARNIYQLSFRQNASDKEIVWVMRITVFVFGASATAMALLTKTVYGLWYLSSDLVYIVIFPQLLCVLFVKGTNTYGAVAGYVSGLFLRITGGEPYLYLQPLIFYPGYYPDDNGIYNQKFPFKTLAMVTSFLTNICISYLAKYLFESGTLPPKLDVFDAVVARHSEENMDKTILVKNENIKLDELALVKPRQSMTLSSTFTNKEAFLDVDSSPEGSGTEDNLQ
Test: human choline transporter blockers, potency – cell-based, 5-point CRC, membrane potential dye, dose response (AID 504840)
Format: functional
The source made the active and inactive calls.
Listing of entries alongside the reported IC50.

For orientation, consider the following solved cases.
- O=C(O)c1[nH]c2ccc(Cl)cc2c1CC(=O)N1CCN(c2ccccc2)CC1: 13.2 µM (active)
- CC1=C(C(=O)OCCOc2ccccc2)C(c2ccsc2)NC(=O)N1C (stereo not drawn): 13.2 µM (active)

Which IC50 value belongs to "COc1cc(NC(=O)c2csc(-c3ccncc3)n2)cc(C(=O)Nc2cccc(C(F)(F)F)c2)c1" ?
6.44 µM (active)

Which IC50 value belongs to COc1ccc(C2=NN(c3ccc(C(=O)O)cc3)C(c3ccc(OC)c(OC)c3)C2)cc1 (stereo not drawn) ?
4.79 µM (active)

Which IC50 value belongs to "N=C1CCCN1CC(=O)c1ccc(Cl)cc1" ?
6.01 µM (active)

Which IC50 value belongs to "Cc1cc(SCc2cc(=O)n3ccsc3n2)nc2ccccc12" ?
13.2 µM (active)

Which IC50 value belongs to "O=C(OCCCOc1ccc(F)cc1)c1ccc(O)cc1O" ?
3.59 µM (active)

Which IC50 value belongs to "O=C(C[n+]1cc(Br)cc2ccccc21)c1ccc(Br)cc1" ?
11.4 µM (active)
